- assay.overview: NCI Yeast Anticancer Drug Screen. Data for the rad14 strain (AID 159);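 note: 0% = growth of vehicle-treated control cultures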
- experimental.context: S. cerevisiae rad14 strain growth inhibition; at 3.7 µM; hits give high values
This is part of a sample that, as a whole, favours compounds with a hit. Of some 79,000 tested, about 15% had one in any assay.
Here the recorded growth inhibition is given for each entry.

{"compound": "CCN(CC)CCC(=O)c1ccc(Oc2ccc(F)cc2)cc1", "unit.of.measurement": "%", "growth inhibition": 39}
{"compound": "NC(=O)NN=C(CS)CS", "unit.of.measurement": "%", "growth inhibition": 0}
{"compound": "NC(N)=N/N=C\\c1c2ccccc2cc2ccccc12", "unit.of.measurement": "%", "growth inhibition": -41}
{"compound": "COC(=O)C1=C(C(=O)OC)C2(C)C=CC1O2 (configuration not stated)", "unit.of.measurement": "%", "growth inhibition": 15}
{"compound": "COC(=O)c1cc(-c2ccc(C)cc2)[nH]c(=O)c1C#N", "unit.of.measurement": "%", "growth inhibition": -6}
{"compound": "Cc1ccc2[nH]c3c(C)c4cc[n+](C)cc4c(C)c3c2c1", "unit.of.measurement": "%", "growth inhibition": 6}
{"compound": "O=C1C(Nc2ccccc2)=C(Oc2ccccc2)C(=O)c2ccccc21", "unit.of.measurement": "%", "growth inhibition": 0}
{"compound": "c1ccc(-c2ccnc3c2ccc2c(-c4ccccc4)ccnc23)cc1", "unit.of.measurement": "%", "growth inhibition": -17}
{"compound": "CCCCCCCCCCCCCCCCCCNC", "unit.of.measurement": "%", "growth inhibition": -16}
{"compound": "O=[N+]([O-])c1ccc2nc3ccccc3cc2c1", "unit.of.measurement": "%", "growth inhibition": 9}
{"compound": "CC(C)/C(Cl)=N\\OC(=O)Nc1cccc(Cl)c1", "unit.of.measurement": "%", "growth inhibition": 2}
{"compound": "CCC/C(Cl)=N\\OC(=O)Nc1cccc(C(F)(F)F)c1", "unit.of.measurement": "%", "growth inhibition": 14}

---

- assay.overview: NCI Yeast Anticancer Drug Screen. Data for the rad14 strain (AID 159);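 note: 0% = growth of vehicle-treated control cultures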
- experimental.context: S. cerevisiae rad14 strain growth inhibition; at 3.7 µM; hits give high values
This is part of a sample that, as a whole, favours compounds with a hit. Of some 79,000 tested, about 15% had one in any assay.
Here the recorded growth inhibition is given for each entry.
reported.endpoint: growth inhibition (%)

{"compound": "CN(N=O)N1C(=O)SCC(c2ccccc2)(c2ccccc2)C1=O", "reported.endpoint": "growth inhibition", "unit.of.measurement": "%", "data.value": -5}
{"compound": "CCCCCCCCCCCCCCCCCCOCC(O)COP(=O)(O)OCC1OC(n2cc(F)c(=O)[nH]c2=O)CC1O (stereo not given)", "reported.endpoint": "growth inhibition", "unit.of.measurement": "%", "data.value": 9}
{"compound": "CC(=O)N/N=C/C(C)(C)C(C)(C)/C=N/NC(C)=O", "reported.endpoint": "growth inhibition", "unit.of.measurement": "%", "data.value": 2}
{"compound": "O=C1CSc2cc([N+](=O)[O-])ccc2N1", "reported.endpoint": "growth inhibition", "unit.of.measurement": "%", "data.value": -7}
{"compound": "O=C(CC(=O)n1nc(-c2ccccc2)c(N=Nc2ccccc2C(=O)O)c1-c1ccccc1)Nc1ccc(Cl)cc1", "reported.endpoint": "growth inhibition", "unit.of.measurement": "%", "data.value": 2}
{"compound": "Cc1cc(N=Nc2ccc(S(=O)(=O)[O-])cc2)cc(C(=O)[O-])c1[O-].NC1CCCCC1N.[Na+].[Pt+4]", "reported.endpoint": "growth inhibition", "unit.of.measurement": "%", "data.value": 52}
{"compound": "C/C(=N\\NC(=S)SCc1ccccc1)c1ccccn1", "reported.endpoint": "growth inhibition", "unit.of.measurement": "%", "data.value": -4}
{"compound": "OC1(c2ccccc2)CSC2=Nc3ccccc3C3CCN1N23 (stereo not given)", "reported.endpoint": "growth inhibition", "unit.of.measurement": "%", "data.value": -32}
{"compound": "COC(=O)c1ccc(CCC2=CC(=O)C(Br)=CC2=O)cc1", "reported.endpoint": "growth inhibition", "unit.of.measurement": "%", "data.value": 1}
{"compound": "[O-][n+]1c2ccc(O)cc2nc2ccc(Br)cc21", "reported.endpoint": "growth inhibition", "unit.of.measurement": "%", "data.value": 7}

---

Here the recorded growth inhibition is given for each entry.
- assay.overview: NCI Yeast Anticancer Drug Screen. Data for the cln2 rad14 strain (AID 165);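 note: 0% = growth equal to vehicle treated cultures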
- experimental.context: S. cerevisiae cln2 rad14 strain, at 50.0 µM (retest, dose inferred, filed as 5.0), hits give high values
About 79,000 compounds went through this panel and 15% of them were active in at least one assay; those are over-represented in the sample as a whole.
reported.endpoint: growth inhibition (%)

{"compound": "C=C(CN(C)C)C(=O)c1cc(C)ccc1C", "reported.endpoint": "growth inhibition", "data.value": 99}
{"compound": "O=CNc1ccc2c(c1)C(=O)c1ccccc1-2", "reported.endpoint": "growth inhibition", "data.value": -5}
{"compound": "CC(C(=O)N1C(=O)N(C(=O)[C@H](C)C(O)c2ccccc2)[C@H](c2ccccc2)[C@H]1c1ccccc1)[C@@H](O)c1ccccc1 (stereo not given in full)", "reported.endpoint": "growth inhibition", "data.value": 59}
{"compound": "O=[N+]([O-])CC(SCc1ccccc1)c1ccc2c(c1)OCO2 (stereo not given)", "reported.endpoint": "growth inhibition", "data.value": 97}
{"compound": "C#CCCCc1ccccc1", "reported.endpoint": "growth inhibition", "data.value": 37}
{"compound": "CC1=NN(c2cccc(Cl)c2)C(=O)C1", "reported.endpoint": "growth inhibition", "data.value": 62}
{"compound": "Nc1ccccc1CC(O)C(=O)O (stereo not given)", "reported.endpoint": "growth inhibition", "data.value": 14}
{"compound": "COC(=O)CSSCc1ccc([N+](=O)[O-])cc1", "reported.endpoint": "growth inhibition", "data.value": 89}
{"compound": "N#CSc1ccc(S(N)(=O)=O)cc1", "reported.endpoint": "growth inhibition", "data.value": 82}
{"compound": "CC[n+]1ccc2c(C)c3[nH]c4ccc(O)cc4c3c(C)c2c1", "reported.endpoint": "growth inhibition", "data.value": 23}
{"compound": "CC1OCC2OC(C)OC(C3C4=C(CC(C)(C)CC4=O)OC4=C3C(=O)CC(C)(C)C4)C2O1 (stereo not given)", "reported.endpoint": "growth inhibition", "data.value": 15}
{"compound": "COc1cc(C(=O)/C=C/c2ccccc2O)ccc1O", "reported.endpoint": "growth inhibition", "data.value": 98}
{"compound": "O=[N+]([O-])/C=C/c1ccc2ccccc2c1", "reported.endpoint": "growth inhibition", "data.value": 93}
{"compound": "COCCOC(=O)CCn1cc(F)c(=O)[nH]c1=O", "reported.endpoint": "growth inhibition", "data.value": 40}
{"compound": "CCN(CC)CC(O)c1ccc2ccc3ccccc3c2c1 (stereo not given)", "reported.endpoint": "growth inhibition", "data.value": -22}
{"compound": "CC(=O)Nc1ccc(SC(C)=O)cc1", "reported.endpoint": "growth inhibition", "data.value": 85}
{"compound": "CC(C)/C(Cl)=N\\OC(=O)Nc1ccccc1F", "reported.endpoint": "growth inhibition", "data.value": 37}
{"compound": "O=C1C2C(C(=O)N1c1ccc(OCc3ccccc3)cc1)C1c3ccccc3C2C2CCCCN21 (stereo not given)", "reported.endpoint": "growth inhibition", "data.value": -15}
{"compound": "COc1ccc2sc3cccc(NCCN(C)C)c3c(=O)c2c1", "reported.endpoint": "growth inhibition", "data.value": 6}
{"compound": "C[Si](C)(C)CNC(=O)OCc1ccccc1", "reported.endpoint": "growth inhibition", "data.value": 20}
{"compound": "O=[N+]([O-])c1cc2no[n+]([O-])c2cc1N1CCCCC1", "reported.endpoint": "growth inhibition", "data.value": -46}
{"compound": "O=[N+]([O-])c1ccc2nc3ccccc3cc2c1", "reported.endpoint": "growth inhibition", "data.value": 16}
{"compound": "O=CC=C(c1ccccc1)c1ccccc1", "reported.endpoint": "growth inhibition", "data.value": 99}
{"compound": "O=C1C2CC[C@@H]3C(=O)C(Cl)(Cl)[C@@H]3CCC2C1(Cl)Cl (stereo not given in full)", "reported.endpoint": "growth inhibition", "data.value": 22}
{"compound": "CC(=O)Oc1cc(-c2cc(OC(C)=O)c(OC(C)=O)c3ccccc23)c2ccccc2c1OC(C)=O", "reported.endpoint": "growth inhibition", "data.value": 56}

---

- assay.overview: NCI Yeast Anticancer Drug Screen. Data for the mlh1 rad18 strain (AID 175)
- experimental.context: S. cerevisiae mlh1 rad18 strain growth inhibition; at 5.0 µM (retest, dose inferred, filed as 0.5)
The panel holds about 79,000 compounds, 15% with a hit somewhere; the sample as a whole holds those more often. The source made the active and inactive calls. Rule as the data show it: active = growth inhibition above about 70%; inactive = the rest.
Outcomes: active, inactive

{"compound": "CSC1=NNC(SC)=NN1", "category.label": "inactive"}
{"compound": "O=c1c2ccccc2ncn1COCc1ccccc1", "category.label": "inactive"}
{"compound": "O=C(O)c1ccccc1-c1ccccc1C(=O)Nc1ccc2c(c1)Cc1ccccc1-2", "category.label": "inactive"}
{"compound": "CCN(CC)[P+](c1ccccc1O)(N(CC)CC)N(CC)CC", "category.label": "inactive"}
{"compound": "S=C(Nc1ccc(Cl)c(Cl)c1)SCc1ccc2c(c1)OCO2", "category.label": "active"}
{"compound": "CNC(=O)OCc1c(COC(=O)NC)c(-c2ccc(Cl)c(Cl)c2)n2c1CCC2", "category.label": "inactive"}
{"compound": "OC1CCCc2c1cc1ccc3cccc4ccc2c1c34 (centres undefined)", "category.label": "inactive"}
{"compound": "CSC(=S)Nc1cccc(C)n1", "category.label": "inactive"}
{"compound": "OCC(Cn1cncn1)(c1ccc(F)cc1F)n1cncn1 (centres undefined)", "category.label": "inactive"}
{"compound": "Cn1c(=O)c(-c2ccccc2)c(N=[N+]=[N-])c2ccccc21", "category.label": "inactive"}
{"compound": "CCCCCCCCCCC(=O)Cl", "category.label": "active"}
{"compound": "O=C1Nc2ccc(Cl)c(I)c2C1=O", "category.label": "inactive"}
{"compound": "C=CCC1=C(C)C(OC(=O)/C=C/c2ccccc2)CC1=O (centres undefined)", "category.label": "inactive"}
{"compound": "Cc1ccc(S(=O)(=O)Oc2cc(Cl)c(Cl)cc2Cl)cc1", "category.label": "inactive"}
{"compound": "CCCC/C=C/C(CC)(C(=O)OCC)C(=O)OCC", "category.label": "inactive"}
{"compound": "COC(=O)c1ccc([N+](=O)[O-])c(O)c1", "category.label": "inactive"}
{"compound": "O=[N+]([O-])c1cccc2nccc(NCCCO)c12", "category.label": "inactive"}
{"compound": "COc1ccc(NC(=S)N/N=C(\\c2ccccc2)c2ccccn2)cc1", "category.label": "inactive"}
{"compound": "O=C1NC(=O)C2C3C=CC(C3)C12 (centres undefined)", "category.label": "inactive"}
{"compound": "N#CN=Nc1cc(Cl)c(N=NC#N)cc1Cl", "category.label": "inactive"}
{"compound": "OCC1OC(OCC(O)C(O)C(O)C(/C=N/Nc2ccccc2)=N/Nc2ccccc2)C(O)C(O)C1O (centres undefined)", "category.label": "inactive"}
{"compound": "CCCCCCCCNC(=O)C1=C(C)NC(C)=C(C(=O)NCCCCCCCC)C1", "category.label": "inactive"}
{"compound": "O=C(N=Nc1ccccc1Cl)NNc1ccccc1Cl", "category.label": "inactive"}
{"compound": "COC1C=COC2(C)Oc3c(C)c(O)c4c(c3C2=O)/C(=N/C2CCC(O)OC2C)C=C(NC(=O)/C(C)=C\\C(=O)C2CC2C(O)C(C)C(O)C(C)C(OC(C)=O)C1C)C4=O (centres undefined)", "category.label": "inactive"}
{"compound": "[O-][n+]1c2ccc(O)cc2nc2ccc(Cl)cc21", "category.label": "inactive"}
{"compound": "COc1ccc(OC)c2cc3ccccc3cc12", "category.label": "inactive"}
{"compound": "CCC(=O)c1cccc2ccccc12", "category.label": "inactive"}
{"compound": "Cc1ccc(CCC2=CCCc3c2ccc2ccccc32)cc1", "category.label": "inactive"}
{"compound": "Cc1cc(S(=O)(=O)/N=C(/NN)NNc2cccc(C(F)(F)F)n2)c(S)cc1Cl", "category.label": "inactive"}
{"compound": "O=C(Nc1ccc(Cl)cc1)OCC#CCCl", "category.label": "inactive"}
{"compound": "O=CNc1ccc2c(c1)C(=O)c1ccccc1-2", "category.label": "inactive"}
{"compound": "O=[N+]([O-])c1ccc2nc3ccccc3cc2c1", "category.label": "inactive"}
{"compound": "c1ccc2c(c1)sc1nc3ccncc3nc12", "category.label": "inactive"}
{"compound": "Nc1nc(Cl)c(Cl)c(Cl)n1", "category.label": "active"}
{"compound": "Cc1ccc(N)c(S)c1", "category.label": "inactive"}
{"compound": "O=C(c1ccc(Cl)cc1Cl)C(Cl)Cl", "category.label": "inactive"}
{"compound": "O=C(CCCN1CCC2(CC1)CC(=O)N(N1CCCCCC1)C2=O)c1ccc(F)cc1", "category.label": "inactive"}
{"compound": "O=C(O)c1ccccc1NC(=S)c1ccccc1", "category.label": "inactive"}
{"compound": "BrCc1cccc2ccc3cccc(CBr)c3c12", "category.label": "inactive"}
{"compound": "CC(C)=CC(=O)O[C@@H]1CC(C)(C)CC2C3=CCC4[C@]56CC[C@](O)(OC5)C(C)(C)C6CC[C@@]4(C)C3(C)CC[C@]21C(=O)O (some centres undefined)", "category.label": "inactive"}
{"compound": "O=Nc1c(NO)ccc2nn(-c3ccccc3)nc12", "category.label": "active"}
{"compound": "O=[N+]([O-])c1ccc([N+]2=NC(c3ccccc3)=NN(c3ccccc3)C2)cc1", "category.label": "inactive"}
{"compound": "O=C1c2ccccc2C(=O)c2cc(CBr)ccc21", "category.label": "inactive"}
{"compound": "COC(=O)c1ccc(CCC2=CC(=O)C(Br)=CC2=O)cc1", "category.label": "inactive"}
{"compound": "CC(=O)OCC(=O)C1(O)CCC2C3CCC4CCCCC4(C)C3CCC21C (centres undefined)", "category.label": "inactive"}
{"compound": "CC(C)/C(Cl)=N\\OC(=O)Nc1ccc(F)cc1", "category.label": "inactive"}
{"compound": "CCOC(=O)[C@H]1Nc2ccccc2C2c3ccccc3CC21 (some centres undefined)", "category.label": "inactive"}
{"compound": "CCC(C(=O)O)C1=C(c2ccccc2)CCc2ccccc21 (centres undefined)", "category.label": "inactive"}
{"compound": "COc1cccc2nc3ccccc3nc12", "category.label": "inactive"}

Data credit: PubChem BioAssay (NCI)
